System: HeLa
experimental protocol: Transfection of CDP/plasmid pGL3-CV in HeLa cells at 200 uM after 48 hrs by luciferase assay
Type: functional, Homo sapiens
The compounds listed here are annotated with their Activity.
observable: Activity (RLU/mg)

>>> result("CCN(CC)CCCC(C)Nc1ccnc2cc(C(F)(F)F)ccc12 (centres undefined)")
6700000
>>> result("CCN(CC)CCOc1ccnc2cc(Cl)ccc12")
230000
>>> result("CCN(CC)CCCC(C)Nc1ccnc2cc(Cl)ccc12 (centres undefined) [CHLOROQUINE]")
4300000
>>> result("CCN(CC)CCCC(C)Nc1ccncc1 (centres undefined)")
82000

Reference for the values: ChEMBL document CHEMBL1137336
